Data provenance is PubChem BioAssay AID330.

System: P388 leukemia ip, CD2F1 mice, survival T/C
EXPERIMENT DESCRIPTION: NCI In Vivo Anticancer Drug Screen. Data for tumor model P388 Leukemia (intraperitoneal) in CD2F1 (CDF1) mice
EXPERIMENTAL PARAMETERS: endpoint: median survival time; dose: 50.0 mg/kg/injection; schedule: Q01DX009 (ip); vehicle: saline with Tween-80; higher = longer survival
Toxic doses and inconclusive results are not listed.
Listed here: items and their measured T/C.
VALUE TYPE: T/C

{"columns": ["COMPOUND", "TEST SYSTEM", "RESULT"],
 "data": [
  ["C[n+]1cccc(C2(O)CCCC2)c1", "P388 leukemia ip, CD2F1 mice, survival T/C", "113 % of control"],
  ["CC(C)(C)N=C(Cc1ccccc1)N1CCOCC1", "P388 leukemia ip, CD2F1 mice, survival T/C", "119 % of control"],
  ["CC1=NNB(O)c2sccc21", "P388 leukemia ip, CD2F1 mice, survival T/C", "90 % of control"],
  ["CCc1cccc(NC(=O)SCc2ccccc2)c1", "P388 leukemia ip, CD2F1 mice, survival T/C", "94 % of control"],
  ["Nc1nccc(Cl)n1", "P388 leukemia ip, CD2F1 mice, survival T/C", "100 % of control"],
  ["C=C(C)C(=O)OC1c2c(C)coc2C(=O)C2CCCC(C)C21C (stereo unspecified)", "P388 leukemia ip, CD2F1 mice, survival T/C", "98 % of control"]
]}
